assay: Compound stability in rat liver microsomes; assay type: in vitro ADME; conditions: pH 7.4; rat liver microsomes 0.5 mg protein/mL, compound 5 μM, NADPH 1.0 mM, 37° C.
OBSERVATION TYPE: half-life at 5 μM (min)

CC[C@H](Nc1ncnc(N)c1-c1ncn(C)n1)c1nc2cccc(Cl)c2c(=O)n1-c1ccccc1    20
CC[C@H](Nc1ncnc(N)c1-c1noc(C)n1)c1nc2cccc(C)c2c(=O)n1C1CC1    20
CC[C@H](Nc1ncnc(N)c1-c1nnn(C)n1)c1nc2cccc(Cl)c2c(=O)n1-c1cccc(F)c1    14.6

---

assay: Pharmacokinetics after intravenous and oral administration in rats; type: in vivo, rat; details: rat, plasma, iv dosing, dose 1 mg/kg
OBSERVATION TYPE: half-life (h)

CC[C@H](Nc1ncnc(N)c1-c1nc(C)no1)c1nc2cccc(Cl)c2c(=O)n1-c1ccccc1    1.19
CC[C@H](Nc1ncnc(N)c1-c1nnc(C)o1)c1nc2cccc(Cl)c2c(=O)n1C1CC1    1.26
CC[C@H](Nc1ncnc(N)c1-c1noc(C)n1)c1nc2cccc(Cl)c2c(=O)n1-c1ccccc1    1.14
